Where do these numbers come from? They come from the supplement of paper PMC6555819.

System: RXRa DBDmut IVT, anti-RXR (DBD mutation: RXRa K156A/R161A, NR concentration 90 nM)
Assay: PBM binding z-score (relative to random genomic background probes); higher = stronger binding; sequences stand for … in GC…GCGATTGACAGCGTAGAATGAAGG
Readout kind: PBM binding z-score

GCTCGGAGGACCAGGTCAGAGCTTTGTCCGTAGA -0.305
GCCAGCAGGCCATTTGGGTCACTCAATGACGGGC -0.31
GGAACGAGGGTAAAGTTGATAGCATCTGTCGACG 0.929
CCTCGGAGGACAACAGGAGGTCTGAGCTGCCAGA -0.213
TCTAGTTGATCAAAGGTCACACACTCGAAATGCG 2.21
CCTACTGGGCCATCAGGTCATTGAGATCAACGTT 0.124
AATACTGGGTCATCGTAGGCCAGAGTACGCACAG 0.934
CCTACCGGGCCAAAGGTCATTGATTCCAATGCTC 0.593
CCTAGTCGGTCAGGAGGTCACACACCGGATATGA 0.219
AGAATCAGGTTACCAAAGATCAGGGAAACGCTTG 0.0556
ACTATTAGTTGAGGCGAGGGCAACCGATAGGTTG 0.263
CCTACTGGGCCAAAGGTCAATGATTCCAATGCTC 0.831
